The compounds listed here are annotated with their Potency.
STUDY SYSTEM: Cytochrome P450 2C19 (Homo sapiens) (UniProt P33261)
Sequence (P33261 whole entry, looked up): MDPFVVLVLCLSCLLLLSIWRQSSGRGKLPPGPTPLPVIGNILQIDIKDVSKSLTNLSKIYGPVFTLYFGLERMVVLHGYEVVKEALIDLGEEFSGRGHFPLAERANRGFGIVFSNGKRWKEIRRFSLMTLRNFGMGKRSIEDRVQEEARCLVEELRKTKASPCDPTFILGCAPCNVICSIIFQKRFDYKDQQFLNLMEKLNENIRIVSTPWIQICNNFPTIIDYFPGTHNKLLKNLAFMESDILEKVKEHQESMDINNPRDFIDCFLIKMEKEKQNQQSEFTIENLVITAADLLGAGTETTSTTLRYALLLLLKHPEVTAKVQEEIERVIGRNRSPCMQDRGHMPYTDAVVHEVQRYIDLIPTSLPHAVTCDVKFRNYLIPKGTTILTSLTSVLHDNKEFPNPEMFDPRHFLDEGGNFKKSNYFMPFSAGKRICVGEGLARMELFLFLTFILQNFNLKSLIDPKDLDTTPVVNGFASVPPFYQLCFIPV
ASSAY METHOD TEXT: qHTS Assay for Inhibitors and Substrates of Cytochrome P450 2C19 (AID 899); further: potency means the concentration at half of the fitted maximal effect; nearly all actives have a fitted effect of over 60% in size
CONDITION INFO: recombinant CYP2C19, luciferin-H EGE luminescence; series mostly up to 57.1 µM
Records with an inconclusive call do not appear. Calls of active or inactive are those of the source. The call rests on the fitted dose curve; in most records, active means well fitted inhibition curve with a large enough effect; inconclusive means small, poorly fitted or top-dose-only effect; inactive means no such curve, though single readings can be large or run the other way.

Worked cases, Potency given:
smiles_string=COc1cccc(-c2cc(NCCc3c[nH]c4ccc(OC)cc34)ncn2)c1 parameter_measured=Potency reported_result="0.501 µM (active)"
smiles_string=CN(C)c1ncnc2ccc(-c3ccccc3C(F)(F)F)cc12 parameter_measured=Potency reported_result="3.98 µM (active)"
smiles_string=CS(=O)(=O)Nc1cccc(-c2ccc3ncnc(NCc4cccnc4)c3c2)c1 parameter_measured=Potency reported_result="0.0501 µM (active)"

Entry under test: `c1ccc(CNc2ncnc3ccc(-c4ccc5c(c4)OCO5)cc23)cc1` . Its Potency was 3.16 µM (active)

Form: compound = `COc1ccc(CNc2ccnc(-c3c(C)noc3C)n2)c(OC)c1` ; Potency = 1.58 µM (active)

The value of Potency measured for the compound `Clc1ccccc1-c1cc(NCc2ccccc2)ncn1` turned out to be 7.94 µM (active)

====

ASSAY METHOD TEXT: qHTS Assay for Lipid Storage Modulators (AID 1519)
CONDITION INFO: Drosophila S3 cells, BODIPY lipid droplet/cell ratio, laser cytometry; measured here: cell count channel max response; cells loaded with oleic acid
Results filed as inconclusive are left out.
Quick reference for max response among some molecules
Report the figure in % without appending any unit label.

molecule=N#Cc1ccc(CN2CC3(CCN(C(=O)c4cccc(F)c4)CC3)C2)cc1 reported_result=2.82
molecule=O=C(c1cnccn1)N1CCC[C@@]2(CCN(Cc3ccccc3)C2)C1 reported_result=8.78
molecule=N#Cc1ccc(CN2CCCC3(CCNCC3)C2)cc1 reported_result=12.8
molecule=COc1cc(C/C=C/c2ccccc2)c(OC)cc1O reported_result=4.35
molecule=COc1ccc(CNc2ncnc3ccc(-c4ccc(N(C)C)cc4)cc23)c(OC)c1 reported_result=-26.6

For `COc1ccc(C(=O)N2CCC3(CCCN(Cc4ccccc4OC)C3)CC2)cc1` the molecule record lists max response as -8.51

So for `c1cncc(-c2nccc(-n3ccnc3)n2)c1` , the logged max response turned out to be 3.87

// sample `COc1ccccc1-c1nccc(Nc2ccc(F)cc2)n1` , its max response was 9.46

Measured max response, `FC(F)(F)c1ccccc1-c1ccc2ncnc(NCc3cccs3)c2c1` : 9.21

The measured max response associated with CC#C[C@]1(O)CC[C@H]2C3CCC4=CC(=O)CCC4=C3[C@@H](c3ccc(N(C)C)cc3)C[C@@]21C (stereo partly specified) reads -13.1

Lookup result for `c1ccc([C@@H]2CN3CCSC3=N2)cc1` ; measured max response: 3.69

====

ASSAY METHOD TEXT: qHTS profiling for inhibitors of Plasmodium falciparum proliferation (AID 504749);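 further: 0% = DMSO vehicle and full inhibition = artemisinin control; nearly all actives have a fitted effect of over 60% in size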
CONDITION INFO: P. falciparum in erythrocytes, SYBR Green DNA, 72 h; at 12.8 µM (top of the series); parasite line B
Results filed as inconclusive are left out.
Listing: activity, negative = inhibition of selected molecules
Your answer should be a plain number; it is taken to be in %.

Study these solved cases before continuing.
smiles_string=Cn1c(=O)c2c(ncn2C[C@@H](O)CO)n(C)c1=O unit_symbol=% reported_result=-2.95
smiles_string=CN(C)CC/C=C1\c2ccccc2CSc2ccccc21 unit_symbol=% reported_result=2.26
smiles_string=CN[C@@H]1[C@H](O[C@@H]2O[C@H](CO)[C@@H](N)[C@H](O)[C@@H]2O)O[C@H]2C[C@@H](N)[C@@H](O[C@H]3[C@@H](O)[C@H](O)[C@H](N)C[C@@H]3N)O[C@H]2[C@H]1O unit_symbol=% reported_result=-5.91
smiles_string=COc1ccccc1OC[C@H](O)COC(N)=O unit_symbol=% reported_result=18.1
smiles_string=C[n+]1ccccc1/C=N\O unit_symbol=% reported_result=8.58

Given item `CC(=O)N(CC(O)CN(C(C)=O)c1c(I)c(C(=O)NC[C@@H](O)CO)c(I)c(C(=O)NC[C@@H](O)CO)c1I)c1c(I)c(C(=O)NC[C@@H](O)CO)c(I)c(C(=O)NC[C@@H](O)CO)c1I` , the value recorded as its activity, negative = inhibition is 6.47

Record summary for `CC(=O)Nc1c(I)c(C(=O)N[C@H]2[C@@H](O)[C@H](O)[C@H](CO)O[C@@H]2O)c(I)c(N(C)C(C)=O)c1I` : reported activity, negative = inhibition = 4.91

For `C[C@@H](C(=O)O)c1ccc(C(=O)c2cccs2)cc1` the molecule record lists activity, negative = inhibition as 11.1
